The entries below come with measured CLint scaled at 1 µM values attached.
- ASSAY TEXT: Metabolic stability in Sprague-Dawley rat liver microsomes assessed as intrinsic clearance at 1 uM preincubated for 10 mins followed by NADPH addition by LC-MS analysis
- Assay type: ADME, Microsome
- CONDITIONS USED: read-out: CLH
MEASUREMENT KIND: CLint scaled at 1 µM (mL/min/kg)

INSERT INTO measurements (molecule, measurement_kind, obs_value) VALUES
  ('C[C@@]1(O)CC[C@H]2[C@H](CC[C@@H]3[C@@H]2CC[C@]2(C)[C@@H](C(=O)Cn4cnn(-c5cccc(F)c5)c4=O)CC[C@@H]32)C1', 'CLint scaled at 1 µM', 44),
  ('C[C@@]1(O)CC[C@H]2[C@H](CC[C@@H]3[C@@H]2CC[C@]2(C)[C@@H](C(=O)Cn4cnn(-c5ccnc(F)c5)c4=O)CC[C@@H]32)C1', 'CLint scaled at 1 µM', 69),
  ('C[C@@]1(O)CC[C@H]2[C@H](CC[C@@H]3[C@@H]2CC[C@]2(C)[C@@H](C(=O)Cn4cnn(-c5cc(F)nc(F)c5)c4=O)CC[C@@H]32)C1', 'CLint scaled at 1 µM', 23),
  ('COc1cccc(-n2ncn(CC(=O)[C@H]3CC[C@H]4[C@@H]5CC[C@@H]6C[C@](C)(O)CC[C@@H]6[C@H]5CC[C@]34C)c2=O)c1', 'CLint scaled at 1 µM', 176),
  ('C[C@@]1(O)CC[C@H]2[C@H](CC[C@@H]3[C@@H]2CC[C@]2(C)[C@@H](C(=O)Cn4nnn(-c5cccc(F)c5)c4=O)CC[C@@H]32)C1', 'CLint scaled at 1 µM', 105),
  ('C[C@@]1(O)CC[C@H]2[C@H](CC[C@@H]3[C@@H]2CC[C@]2(C)[C@@H](C(=O)Cn4cc(C#N)cn4)CC[C@@H]32)C1 [ZURANOLONE]', 'CLint scaled at 1 µM', 51.8),
  ('C[C@@]1(O)CC[C@H]2[C@H](CC[C@@H]3[C@@H]2CC[C@]2(C)[C@@H](C(=O)Cn4cnn(CC5CC5)c4=O)CC[C@@H]32)C1', 'CLint scaled at 1 µM', 280);

---

- ASSAY TEXT: Tmax in male Sprague-Dawley rat at 24.4 micromol/kg, IG administered as single dose and measured upto 24 hrs by LC-MS/MS analysis
- Assay type: ADME
- CONDITIONS USED: in vivo, po, dose 24.4 µmol/kg
The entries below come with measured Tmax values attached.
MEASUREMENT KIND: Tmax (h)

INSERT INTO assay_data (compound, measurement_kind, unit_abbreviation, obs_value) VALUES
  ('C[C@@]1(O)CC[C@H]2[C@H](CC[C@@H]3[C@@H]2CC[C@]2(C)[C@@H](C(=O)Cn4cc(C#N)cn4)CC[C@@H]32)C1 [ZURANOLONE]', 'Tmax', 'h', 1.17),
  ('C[C@@]1(O)CC[C@H]2[C@H](CC[C@@H]3[C@@H]2CC[C@]2(C)[C@@H](C(=O)Cn4cnn(-c5cc(F)nc(F)c5)c4=O)CC[C@@H]32)C1', 'Tmax', 'h', 2.01);

---

- TARGET OR SYSTEM: Gamma-aminobutyric acid receptor subunit alpha-4/beta3/delta (Homo sapiens, UniProt O14764+P28472+P48169)
- Sequence (P28472 whole entry): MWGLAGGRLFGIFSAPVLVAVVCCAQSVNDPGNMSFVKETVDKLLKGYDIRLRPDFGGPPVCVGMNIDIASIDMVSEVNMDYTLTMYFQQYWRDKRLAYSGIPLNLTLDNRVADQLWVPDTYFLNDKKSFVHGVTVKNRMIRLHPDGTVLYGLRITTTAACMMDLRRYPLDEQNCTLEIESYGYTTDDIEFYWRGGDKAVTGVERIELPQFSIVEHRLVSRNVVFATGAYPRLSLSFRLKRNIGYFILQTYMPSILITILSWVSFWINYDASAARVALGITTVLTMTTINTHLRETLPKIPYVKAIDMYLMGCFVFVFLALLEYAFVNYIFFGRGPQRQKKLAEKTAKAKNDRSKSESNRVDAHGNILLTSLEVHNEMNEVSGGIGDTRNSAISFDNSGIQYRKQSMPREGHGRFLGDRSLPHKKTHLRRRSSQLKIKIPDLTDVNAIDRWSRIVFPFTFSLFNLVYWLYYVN
- Sequence (P48169 whole entry): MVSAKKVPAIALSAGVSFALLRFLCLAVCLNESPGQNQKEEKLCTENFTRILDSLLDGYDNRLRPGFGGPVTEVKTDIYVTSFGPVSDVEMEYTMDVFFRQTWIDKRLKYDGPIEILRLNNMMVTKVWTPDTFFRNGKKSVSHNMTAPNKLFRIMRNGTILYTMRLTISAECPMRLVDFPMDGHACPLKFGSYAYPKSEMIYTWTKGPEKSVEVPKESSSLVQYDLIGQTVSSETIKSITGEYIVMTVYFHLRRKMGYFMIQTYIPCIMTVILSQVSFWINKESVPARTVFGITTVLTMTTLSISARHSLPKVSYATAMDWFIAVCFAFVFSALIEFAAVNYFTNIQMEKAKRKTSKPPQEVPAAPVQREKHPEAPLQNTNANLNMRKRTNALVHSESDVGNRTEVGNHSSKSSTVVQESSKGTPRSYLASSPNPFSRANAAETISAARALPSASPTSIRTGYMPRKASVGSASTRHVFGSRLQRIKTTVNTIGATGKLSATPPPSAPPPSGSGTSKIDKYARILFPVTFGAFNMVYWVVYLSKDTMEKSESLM
- Sequence (O14764 whole entry): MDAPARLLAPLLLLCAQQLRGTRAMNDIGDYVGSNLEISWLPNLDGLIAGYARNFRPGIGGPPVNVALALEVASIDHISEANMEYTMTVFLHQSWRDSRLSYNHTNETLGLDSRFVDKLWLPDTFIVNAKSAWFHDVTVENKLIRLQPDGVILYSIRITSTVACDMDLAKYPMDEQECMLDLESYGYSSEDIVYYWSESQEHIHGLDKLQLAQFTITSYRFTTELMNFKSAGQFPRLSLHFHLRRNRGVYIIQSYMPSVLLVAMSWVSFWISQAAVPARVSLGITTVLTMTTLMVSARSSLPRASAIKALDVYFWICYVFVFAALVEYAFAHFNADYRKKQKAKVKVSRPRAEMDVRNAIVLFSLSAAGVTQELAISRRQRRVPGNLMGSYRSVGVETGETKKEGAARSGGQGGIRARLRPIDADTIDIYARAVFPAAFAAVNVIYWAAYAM
- ASSAY TEXT: Positive allosteric modulation of extrasynaptic alpha4beta3delta GABA-A receptor (unknown origin) transfected in CHO cells assessed as potentiation of GABA-induced peak current amplitude at -80 mV holding potential preincubated for 30 secs followed by GABA stimulation for 2 secs by manual patch assay
MEASUREMENT KIND: EC50 (nM)

INSERT INTO measurements (smiles_text, measurement_kind, obs_value) VALUES
  ('C[C@@]1(O)CC[C@H]2[C@H](CC[C@@H]3[C@@H]2CC[C@]2(C)[C@@H](C(=O)Cn4cnn(-c5ccccc5)c4=O)CC[C@@H]32)C1', 'EC50', 29),
  ('C[C@@]1(O)CC[C@H]2[C@H](CC[C@@H]3[C@@H]2CC[C@]2(C)[C@@H](C(=O)Cn4cnn(C5CCCC5)c4=O)CC[C@@H]32)C1', 'EC50', 203),
  ('C[C@@]1(O)CC[C@H]2[C@H](CC[C@@H]3[C@@H]2CC[C@]2(C)[C@@H](C(=O)Cn4cnn(-c5ccnc(F)c5)c4=O)CC[C@@H]32)C1', 'EC50', 56);

---

For reference, pIC50 measured on Cytochrome P450 2C9 (Homo sapiens):
pIC50: −log10 of the molar value.
MEASUREMENT KIND: pIC50

INSERT INTO measurements (smiles_text, obs_value) VALUES
  ('C[C@@]1(O)CC[C@H]2[C@H](CC[C@@H]3[C@@H]2CC[C@]2(C)[C@@H](C(=O)Cn4cnn(-c5cc(F)nc(F)c5)c4=O)CC[C@@H]32)C1', '< 4.52'),
  ('C[C@@]1(O)CC[C@H]2[C@H](CC[C@@H]3[C@@H]2CC[C@]2(C)[C@@H](C(=O)Cn4cc(C#N)cn4)CC[C@@H]32)C1', '< 4.52');

---

The entries below come with measured Cmax values attached.
- ASSAY TEXT: Cmax in male Sprague-Dawley rat at 24.4 micromol/kg, IG administered as single dose and measured upto 24 hrs by LC-MS/MS analysis
- Type: ADME
- CONDITIONS USED: in vivo, po, dose 24.4 µmol/kg
MEASUREMENT KIND: Cmax (nM)

INSERT INTO assay_data (compound, measurement_kind, obs_value) VALUES
  ('C[C@@]1(O)CC[C@H]2[C@H](CC[C@@H]3[C@@H]2CC[C@]2(C)[C@@H](C(=O)Cn4cnn(-c5cc(F)nc(F)c5)c4=O)CC[C@@H]32)C1', 'Cmax', 2530),
  ('C[C@@]1(O)CC[C@H]2[C@H](CC[C@@H]3[C@@H]2CC[C@]2(C)[C@@H](C(=O)Cn4cc(C#N)cn4)CC[C@@H]32)C1 [ZURANOLONE]', 'Cmax', 2290);

---

- ASSAY TEXT: Metabolic stability in human liver microsomes assessed as compound remaining at 1 uM preincubated for 10 mins followed by NADPH addition by LC-MS analysis
- Assay type: ADME, Microsome
- CONDITIONS USED: read-out: Stability
MEASUREMENT KIND: remaining at 1 µM (%)

INSERT INTO results (smiles_text, obs_value) VALUES
  ('C[C@@]1(O)CC[C@H]2[C@H](CC[C@@H]3[C@@H]2CC[C@]2(C)[C@@H](C(=O)Cn4nnn(-c5cccc(F)c5)c4=O)CC[C@@H]32)C1', 70),
  ('C[C@@]1(O)CC[C@H]2[C@H](CC[C@@H]3[C@@H]2CC[C@]2(C)[C@@H](C(=O)Cn4cnn(-c5ccnc(F)c5)c4=O)CC[C@@H]32)C1', 48.1),
  ('C[C@@]1(O)CC[C@H]2[C@H](CC[C@@H]3[C@@H]2CC[C@]2(C)[C@@H](C(=O)Cn4cnn(-c5cc(F)nc(F)c5)c4=O)CC[C@@H]32)C1', 98);

---

- TARGET OR SYSTEM: Gamma-aminobutyric acid receptor subunit alpha-4/beta3/delta (Homo sapiens) (UniProt P28472+P48169+O14764)
- ASSAY TEXT: Positive allosteric modulation of extrasynaptic alpha4beta3delta GABA-A receptor (unknown origin) transfected in CHO cells assessed as potentiation of GABA-induced peak current amplitude by measuring maximal efficacy at 0.01 to 10 uM at -80 mV holding potential preincubated for 30 secs followed by GABA stimulation for 2 secs by manual patch assay relative to control
- Type: cell-based
- CONDITIONS USED: filed as positive allosteric modulator, dose 0.01-10 µM, time 32.0 sec
The entries below come with measured Emax values attached.
MEASUREMENT KIND: Emax

INSERT INTO results (smiles_text, measurement_kind, obs_value) VALUES
  ('C[C@@]1(O)CC[C@H]2[C@H](CC[C@@H]3[C@@H]2CC[C@]2(C)[C@@H](C(=O)Cn4cnn(-c5cccc(F)c5F)c4=O)CC[C@@H]32)C1', 'Emax', '526%'),
  ('C[C@@]1(O)CC[C@H]2[C@H](CC[C@@H]3[C@@H]2CC[C@]2(C)[C@@H](C(=O)Cn4cnn(-c5nccs5)c4=O)CC[C@@H]32)C1', 'Emax', '633%'),
  ('C[C@@]1(O)CC[C@H]2[C@H](CC[C@@H]3[C@@H]2CC[C@]2(C)[C@@H](C(=O)Cn4cnn(CC5CC5)c4=O)CC[C@@H]32)C1', 'Emax', '931%'),
  ('CC(C)(C)n1ncn(CC(=O)[C@H]2CC[C@H]3[C@@H]4CC[C@@H]5C[C@](C)(O)CC[C@@H]5[C@H]4CC[C@]23C)c1=O', 'Emax', '749%'),
  ('C[C@@]1(O)CC[C@H]2[C@H](CC[C@@H]3[C@@H]2CC[C@]2(C)[C@@H](C(=O)Cn4cnn(-c5cc(F)ccn5)c4=O)CC[C@@H]32)C1', 'Emax', '720%'),
  ('Cn1ncn(CC(=O)[C@H]2CC[C@H]3[C@@H]4CC[C@@H]5C[C@](C)(O)CC[C@@H]5[C@H]4CC[C@]23C)c1=O', 'Emax', '497%');
